- Tested on: MS2 coat protein
- Test method notes: apparent KD of MS2 coat protein; designed switch direction (-1 OFF switch, 1 ON switch): 1; higher = weaker reporter binding
- Condition parameters: Eterna round: R95; input ligand: FMN 200 uM

# Query sequence, apparent KD of MS2 coat protein (nM)
records = [
    ("AAAACACAUGAGGAUCACCCAUGUACCAGGUACAUAGGAUAUCCAGGCGCCAAAUAGCGCGGAGAAGGAUGGAAAA [Radireatdi] (puzzle: Same State 1)", 78.2),
    ("UCUUGGUUUUUGCUCGUUUUUUGUGUUGAACAUGAGGAUCACCCAUGUAUUGUACAGUCCGAUUUAAUAAUGGUCCG [JMF 57] (puzzle: Sensor for hsa-mir-208a)", 31.5),
    ("CAGCGCUGUCGAGAGGAUAUGUGGUGAUGGACAUGAGGAUCACCCAUGUUAGCGACAGUAUCACGGCAGAAGGCUCUACCGCUGC [Soteed Omei mod 31] (puzzle: Same State 2)", 56.1),
    ("CGUCCGGCCUGUGCUGGCCGGCGGCUUGUACAUGAGGAUCACCCAUGUUCUUGUGCUGGCUUUUUGCUCGUCUUGUG [salish99_mir208a_022] (puzzle: Sensor for hsa-mir-208a)", 32.2),
    ("GAGAGUGAAGUACAGGAUAUGAGGAGAGGAACAUGAGGAUCACCCAUGUGAAAUAGAGAGAAGAGUCAGAAGGGUAGGGAAGAGA [JR_SS2_Sub004] (puzzle: Same State 2)", 32.8),
    ("GGGUAGGAAUUACAGGAUAUAUAGAAGUUGACAUGAGGAUCACCCAUGUAUGGGUUGGGAGGAGGAUAGAAGGGUAUGAGAGGUG [JR_SS2_Sub032] (puzzle: Same State 2)", 125),
    ("AGUCCAGCCUGAGCUGGACAAGAGCAUGUACAUGAGGAUCACCCAUGUCAUGUACAAGCUUUUUGCUCGUCUUAAAA [Zipper 46 - 2] (puzzle: Sensor for hsa-mir-208a)", 493),
    ("GGAGGAUGAGCGUAGGAUAUAGGAGGAGUGACAUGAGGAUCACCCAUGUAGUAGGAGGGAAAGGGCUAGAAGGACGAGGAAGAGG [JR_SS2_Sub071] (puzzle: Same State 2)", 56.1),
    ("UCUUGGUUUUUGCUCGUUUUUUGUGUUGAACAUGAGGAUCACCCAUGUAUUGUACGGUCCAAUUUAGUAGUGGUCCG [JMF 25] (puzzle: Sensor for hsa-mir-208a)", 26.6),
    ("UCUUGGUUUUUGCUCGUUUUUUGUGUUGAACAUGAGGAUCACCCAUGUAUUGUACGGUCCGGUUUGAUGAUGGUCCA [JMF 46] (puzzle: Sensor for hsa-mir-208a)", 35.6),
    ("AAAAUACAUGAGGAUCACCCAUGUAGAAACUACACAGGAUAUCGGACGGCUGUAGCCAAACGAGAAGGGUGAACCC [Ramazaza] (puzzle: Same State 1)", 90.8),
]
